Each recorded value in this set is attributed to paper PMC5461506.

Target: T1, GST-coupled four-point-one, ezrin, radixin, moesin (FERM) domain of ezrin (human, UniProt P15311 2-296)
T1 construct: also called GST-FERM domain of ezrin; ezrin FERM domain in fusion with GST
T1 sequence (P15311 2-296): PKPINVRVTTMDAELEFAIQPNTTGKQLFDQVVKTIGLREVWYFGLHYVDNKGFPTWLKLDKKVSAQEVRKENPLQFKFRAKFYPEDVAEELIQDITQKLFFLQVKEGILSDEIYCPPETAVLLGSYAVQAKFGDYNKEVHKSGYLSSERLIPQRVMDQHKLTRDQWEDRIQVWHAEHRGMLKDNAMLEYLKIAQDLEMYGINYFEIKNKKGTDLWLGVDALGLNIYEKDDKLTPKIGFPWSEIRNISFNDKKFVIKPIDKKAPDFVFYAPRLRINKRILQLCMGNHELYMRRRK
Assay: SPR; BIAcore T200, biotinylated peptides captured on streptavidin chip (630 RU CD147, 286 RU CD44), GST fusions as analytes, non-reducing buffer (PBS, 0.02% Tween-20), 25 μl/min, 60 s association, 60 s dissociation
Conditions: both partners purified
No end group written: not given here. *: point of attachment. Biotin = O=C1N[C@H]2[C@H](CS[C@H]2CCCCC(=O)*)N1

{"BINDER": "Biotin-NSRRRCGQKKKLVINSG (also called cytosolic tail of CD44; juxta-membrane cytosolic portion of CD44; source: synthetic peptide, bought: ProteoGenix) [biotinylated peptide of the juxta-membrane region of CD44]", "Kd": "4.3 nM"}
